- Test system: MARIMO
- procedure.details: cell viability relative to vehicle control; higher = less cytotoxic;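 note: after 48 h exposure read by CellTiter-Glo luminescence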
- condition.label: 10 µM; SRSF2 genotype: SRSF2 P95H/wt
assay.metric: cell viability (%)
Note: unit % is implicit; provide only the numeric part.

A selection of reference data follows.
Lookup: Entry under review: `COc1cc2c(cc1O)C[C@H]1c3cc(O)c(OC)cc3CC[N@@+]1(C)C2` . Reported cell viability?
Found: 98.9

Lookup: Entry under review: CC(=O)OCC(=O)[C@H]1CC[C@H]2[C@@H]3CCC4=CC(=O)CC[C@]4(C)[C@H]3CC[C@]12C [Deoxycorticosterone acetate] . Reported cell viability?
Found: 89.8

Lookup: Entry under review: O=C(O)C1=C(CSc2nnnn2CS(=O)(=O)O)CS[C@@H]2[C@H](NC(=O)[C@H](O)c3ccccc3)C(=O)N12 [Cefonicid sodium] . Reported cell viability?
Found: 97.2

Lookup: Entry under review: `CNC(=O)c1ccccc1Oc1nc(Nc2cc(OC)c(OC)c(OC)c2)ncc1Br` . Reported cell viability?
Found: 52.5

***
Lookup: Entry under review: O=P(O)(O)C(O)(Cc1cccnc1)P(=O)(O)O [Risedronate sodium] . Reported cell viability?
Found: 88.9

* * *

- Tested on: OCI-AML2
- procedure.details: cell viability relative to vehicle control; higher = less cytotoxic
- condition.label: 10 µM; SRSF2 genotype: wt/wt
Consider the following molecules and their measured cell viability readings.
Note: unit % is implicit; provide only the numeric part.

Lookup: Entry under review: `C=C(C)[C@@H]1CC[C@]2(C(=O)O)CC[C@]3(C)[C@H](CC[C@@H]4[C@@]5(C)CCC(=O)C(C)(C)[C@@H]5CC[C@]43C)[C@@H]12` . Reported cell viability?
Found: 17.1

* * *

- System: OCI-AML2
- procedure.details: cell viability relative to vehicle control; higher = less cytotoxic
- condition.label: 10 µM; SRSF2 genotype: wt/wt
Consider the following compounds and their measured cell viability readings.
Note: unit % is implicit; provide only the numeric part.

A selection of reference data follows.
Lookup: Entry under review: CCOC(=O)C=Cc1ccc(OC)cc1 [Ethyl 4-Methoxycinnamate] . Reported cell viability?
Found: 83.5

Lookup: Entry under review: `Cn1nccc1Nc1nccc(-c2cc3c(s2)C(C)(C)N(CCN2CCOCC2)C3=O)n1` . Reported cell viability?
Found: 43.2

Lookup: Entry under review: `CC1(C)OCCn2c1nc1c(N3CCOCC3)nc(-c3cnc(N)nc3)nc12` . Reported cell viability?
Found: 19.6

Lookup: Entry under review: CCC/C=C1\OC(=O)C2=C1CCC=C2 [Ligustilide] . Reported cell viability?
Found: 63.9

Lookup: Entry under review: C[C@@H]1O[C@@H](OC[C@H]2O[C@@H](Oc3c(-c4ccc(OCCO)c(OCCO)c4)oc4cc(OCCO)cc(O)c4c3=O)[C@H](O)[C@@H](O)[C@@H]2O)[C@H](O)[C@H](O)[C@H]1O [Troxerutin] . Reported cell viability?
Found: 88

***
Lookup: Entry under review: CC(=O)O[C@H]1CC/C(C)=C/CC/C(C)=C/C[C@]2(C(C)C)CC[C@@]1(C)O2 [Incensole acetate] . Reported cell viability?
Found: 85.2

Lookup: Entry under review: CCC(=O)NS(=O)(=O)c1ccc(-c2c(-c3ccccc3)noc2C)cc1 [Parecoxib Sodium] . Reported cell viability?
Found: 97.3
